The measurements presented in this section are drawn from patent US20070265189A1.

# MEASUREMENT_TARGET: T1, Insulin receptor prepared according to Bass et al., 1996 (human, UniProt P06213 28-956, limits assumed)
# T1 construct: extracellular domain; also called IR; soluble IR (Bass construct); not shown: immunoglobulin constant domains (Fc or lambda) of the Bass construct
The reader will find reported Ratio over Background, IR values listed item by item below.
Entry rule: numbers only, all in ratio over background.

Below, each entry is followed by its recorded Ratio over Background, IR result.
Could you tell me which Ratio over Background, IR is on file for DYKDSRVAATKEKRPSDDPFYHKLSELLQGSAAAGAP (not shown: rest of the phage display fusion (remainder of E-Tag, phage coat protein)) [B6Hα-3-F7-IR] ?
1

Requested read-out: Ratio over Background, IR. Entry: DYKDAETSAQVGWQRLWSVWPGDHWSTLDPFYHKLSELLRESGAAAAGAP (not shown: rest of the phage display fusion (remainder of E-Tag, phage coat protein)) [B6L-3-G5-IR]
1.4

Okay, next one:
Which Ratio over Background, IR value is on record for DYKDGHYFGSFYDAIDQLVAGMLPGAAAGAP (not shown: rest of the phage display fusion (remainder of E-Tag, phage coat protein)) [20E2A-3-A3-IGFR] ?
1.5
